Known combination Emax of a selection of molecules
Tested on: ME-180 (Cervical Carcinoma)
ASSAY_PROCEDURE: combination Emax (second highest fraction inhibited in the dose matrix, 72 h); higher = more inhibition; extreme values may be limits of the assay
QUANTITY_KIND: combination Emax

[[record]]
molecule = "COc1cccc(OCCCN)c1-c1cc(Nc2cnc(C#N)cn2)n[nH]1 [Prexasertib] + CN(C)CCCOc1ccc(-c2ccc3ncc4c(c3c2)n(C2CCOCC2)c(=O)n4C)cn1 [AZD0156] (first compound max 1 µM, 7x7, partner max 1 µM)"
observed_value = 0.324

[[record]]
molecule = "C[C@@H](c1ccc2nccn2c1)n1nnc2ncc(-c3cnn(C)c3)nc21 [Savolitinib] + CC1(C)CCC(CN2CCN(c3ccc(C(=O)NS(=O)(=O)c4ccc(NCC5CCOCC5)c([N+](=O)[O-])c4)c(Oc4cnc5[nH]ccc5c4)c3)CC2)=C(c2ccc(Cl)cc2)C1 [Venetoclax] (first compound max 1 µM, 7x7, partner max 1 µM)"
observed_value = 0.114

[[record]]
molecule = "CS(=O)(=O)CCNCc1ccc(-c2ccc3ncnc(Nc4ccc(OCc5cccc(F)c5)c(Cl)c4)c3c2)o1 [Lapatinib] + Cn1cnc2c(F)c(Nc3ccc(Br)cc3Cl)c(C(=O)NOCCO)cc21 [Selumetinib] (first compound max 10 µM, 7x7, partner max 10 µM)"
observed_value = 0.476

[[record]]
molecule = "NC1(C(=O)N[C@@H](CCO)c2ccc(Cl)cc2)CCN(c2ncnc3[nH]ccc23)CC1 [Capivasertib] + Cn1cnc2c(F)c(Nc3ccc(Br)cc3Cl)c(C(=O)NOCCO)cc21 [Selumetinib] (first compound max 10 µM, 7x7, partner max 10 µM)"
observed_value = 0.681

[[record]]
molecule = "Cn1cnc2c(F)c(Nc3ccc(Br)cc3Cl)c(C(=O)NOCCO)cc21 [Selumetinib] + C[C@@H]1COCCN1C2=NC(=NC(=C2)C3(CC3)[S@](=N)(=O)C)C4=C5C=CNC5=NC=C4 [AZD6738] (first compound max 10 µM, 7x7, partner max 10 µM)"
observed_value = 0.465

[[record]]
molecule = "Cc1cc2ncnn2cc1Nc1ncc2c(n1)n(C1CCOCC1)c(=O)n2C [AZD7648] + C=CCn1c(=O)c2cnc(Nc3ccc(N4CCN(C)CC4)cc3)nc2n1-c1cccc(C(C)(C)O)n1 [AZD1775] (first compound max 10 µM, partner max 1 µM)"
observed_value = 0.529

[[record]]
molecule = "CN(CCO)CC[C@H](CSc1ccccc1)Nc1ccc(S(=O)(=O)NC(=O)c2ccc(N3CCC([C@@H](O)c4ccccc4-c4ccc(Cl)cc4)CC3)cc2)cc1S(=O)(=O)C(F)(F)F [AZD4320] + C[C@@H](Nc1cc(F)cc(F)c1)c1cc(C(=O)N(C)C)cc2c(=O)cc(N3CCOCC3)oc12 [AZD8186] (first compound max 1 µM, 7x7, partner max 3 µM)"
observed_value = 0.338

[[record]]
molecule = "C=CCn1c(=O)c2cnc(Nc3ccc(N4CCN(C)CC4)cc3)nc2n1-c1cccc(C(C)(C)O)n1 [AZD1775] + CCc1c2c(nc3ccc(O)cc13)-c1cc3c(c(=O)n1C2)COC(=O)[C@]3(O)CC [SN-38] (first compound max 1 µM, partner max 0.3 µM)"
observed_value = 0.973


* * *

System: SK-N-AS (Neuroblastoma);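 also: after 72 h of two-drug dosing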
ASSAY_PROCEDURE: Bliss excess, mean over the matrix (fraction); higher = more synergy
Form field: Bliss excess (one value per entry).
QUANTITY_KIND: Bliss excess

[[record]]
compound = "CN(C)CCCOc1ccc(-c2ccc3ncc4c(c3c2)n(C2CCOCC2)c(=O)n4C)cn1 [AZD0156] + CCN(CCO)CCCOc1ccc2c(Nc3cc(CC(=O)Nc4cccc(F)c4)[nH]n3)ncnc2c1 [AZD2811] (first compound max 1 µM, 7x7, partner max 1 µM)"
observed_value = -0.014

[[record]]
compound = "CC1(C)CCC(CN2CCN(c3ccc(C(=O)NS(=O)(=O)c4ccc(NCC5CCOCC5)c([N+](=O)[O-])c4)c(Oc4cnc5[nH]ccc5c4)c3)CC2)=C(c2ccc(Cl)cc2)C1 [Venetoclax] + C1CN(CCC1(C(=O)N[C@@H](CCO)C2=CC=C(C=C2)Cl)N)C3=NC=NC4=C3C=CN4 [Capivasertib] (first compound max 1 µM, 7x7, partner max 3 µM)"
observed_value = -0.0237

[[record]]
compound = "CN(CCO)CC[C@H](CSc1ccccc1)Nc1ccc(S(=O)(=O)NC(=O)c2ccc(N3CCC([C@@H](O)c4ccccc4-c4ccc(Cl)cc4)CC3)cc2)cc1S(=O)(=O)C(F)(F)F [AZD4320] + Nc1ccn([C@@H]2O[C@H](CO)[C@@H](O)C2(F)F)c(=O)n1 [Gemcitabine] (first compound max 1 µM, 7x7, partner max 0.3 µM)"
observed_value = 0.0011

[[record]]
compound = "Cc1cc2ncnn2cc1Nc1ncc2c(n1)n(C1CCOCC1)c(=O)n2C [AZD7648] + CN(C)CCCOc1ccc(-c2ccc3ncc4c(c3c2)n(C2CCOCC2)c(=O)n4C)cn1 [AZD0156] (first compound max 10 µM, 7x7, partner max 1 µM)"
observed_value = -0.008

